// OVCAR-8 ovarian GI50 records
quantity kind: GI50

INSERT INTO results (molecule, measured_value) VALUES
  ('O=C(c1ccc2ncc(-c3nc(NC4CC4)ncc3F)n2c1)N1CCOCC1', '2.44 µM'),
  ('NC(=O)c1cc(Br)cc(C2CCCCC2)c1O', '14.4 µM'),
  ('NNc1cccc(/C=C/c2ccccc2)cc1=O', '3.74 µM'),
  ('COc1cc(/C=C\[N+](=O)[O-])ccc1OCc1ccccc1', '2.91 µM'),
  ('COCCOC(=O)NC(=O)Nc1ccc(/C(=N/O)c2ccc(Cl)cc2)cc1', '0.188 µM'),
  ('CC1=C[C@H]2c3c(c(O)c(O)c4oc5ccccc5c(=O)c34)[C@H](c3cc(O)c(O)c4oc5ccccc5c(=O)c34)[C@H]2C(C)(C)C1', '0.93 µM'),
  ('COc1cc(/C=C2\CC3C4CC=C5C[C@@H](OC(C)=O)CC[C@]5(C)C4CC[C@]3(C)C2=O)ccc1OCCCn1ccnc1 (some centres undefined)', '11 µM'),
  ('CC(=O)O[C@H]1CC[C@@]2(C)C(=CC[C@H]3[C@@H]4C/C(=C\c5cccc(OCCN6CCOCC6)c5)[C@H](OC(C)=O)[C@@]4(C)CC[C@@H]32)C1', '8.69 µM'),
  ('N#Cc1c(-c2ccccc2)cc(-c2ccc(Nc3nc(Nc4ccc(Cl)cc4)nc(Nc4ccc(Cl)cc4)n3)cc2)nc1N', '3.94 µM');

Source listed as PubChem BioAssay (NCI).
